Test system: Monoamine transporters; serotonin & dopamine
measurement.notes: Ratio between the IC50 values of SERT and DAT
Type: protein assay
Lab note: compare Ratio with 20, writing satisfied if less and not satisfied if equal or more.

sample.smiles | class
Fc1ccc(C=CCN2CCC(CCOC(c3ccc(F)cc3)c3ccc(F)cc3)CC2)cc1 | satisfied
Fc1ccc(CCCN2CCC(CCOC(c3ccccc3)c3ccccc3)CC2)cc1 | not satisfied
C(=Cc1ccccc1)CN1CCC(CCOC(c2ccccc2)c2ccccc2)CC1 | not satisfied
C(=Cc1cccs1)CN1CCC(CCOC(c2ccccc2)c2ccccc2)CC1 | not satisfied
Fc1ccc(C(OCCC2CCN(CC=Cc3ccccc3)CC2)c2ccc(F)cc2)cc1 | satisfied
